Could you please report measured First Scan Tm for the items listed next?
- TEST: Thermal stability of cysteine-NEM conjugates by DSC
- Format: physicochemical
- CONDITION_PARAMETERS: DSC 25-100 °C, 1 °C per minute
Answer with a number only, understood to be in °C.

Looking up D15C: cysteine variant of P54AR4-83v2 (SEQ ID NOS: 193 and 231); NEM and VC-MMAF conjugates (conjugate, NEM or vcMMAF conjugate; EGFR binding FN3 domain, NEM and VC-MMAF conjugates) MLPAPKNLVVSEVTECSARLSWDDPWAFYESFLIQYQESEKVGEAIVLTVPGSERSYDLTGLKPGTEYTVSIYGVHNVYKDTNMRGLPLSAIFTT , I found its First Scan Tm recorded as 73

Recorded First Scan Tm (molecule S89C: cysteine variant of P54AR4-83v2 (SEQ ID NOS: 213 and 251); NEM and VC-MMAF conjugates (conjugate, NEM or vcMMAF conjugate; EGFR binding FN3 domain, NEM and VC-MMAF conjugates) MLPAPKNLVVSEVTEDSARLSWDDPWAFYESFLIQYQESEKVGEAIVLTVPGSERSYDLTGLKPGTEYTVSIYGVHNVYKDTNMRGLPLCAIFTT ): 72

molecule T59C: cysteine variant of P54AR4-83v2 (SEQ ID NOS: 206 and 244); NEM and VC-MMAF conjugates (conjugate, NEM or vcMMAF conjugate; EGFR binding FN3 domain, NEM and VC-MMAF conjugates) MLPAPKNLVVSEVTEDSARLSWDDPWAFYESFLIQYQESEKVGEAIVLTVPGSERSYDLCGLKPGTEYTVSIYGVHNVYKDTNMRGLPLSAIFTT , First Scan Tm observed: 67

First Scan Tm reading for V12C (conjugate, left off: small tags and cut ends) LPAPKNLVVSECTEDSARLSWDDPWAFYESFLIQYQESEKVGEAIVLTVPGSERSYDLTGLKPGTEYTVSIYGVHNVYKDTNMRGLPLSAIFTT : 58

Given item V49C (conjugate, left off: small tags and cut ends) LPAPKNLVVSEVTEDSARLSWDDPWAFYESFLIQYQESEKVGEAIVLTCPGSERSYDLTGLKPGTEYTVSIYGVHNVYKDTNMRGLPLSAIFTT , the value recorded as its First Scan Tm is 54

// First Scan Tm lookup, molecule = V41C: cysteine variant of P54AR4-83v2 (SEQ ID NOS: 200 and 238); NEM and VC-MMAF conjugates (conjugate, NEM or vcMMAF conjugate; EGFR binding FN3 domain, NEM and VC-MMAF conjugates) MLPAPKNLVVSEVTEDSARLSWDDPWAFYESFLIQYQESEKCGEAIVLTVPGSERSYDLTGLKPGTEYTVSIYGVHNVYKDTNMRGLPLSAIFTT , result: 71
